Reference for the values: paper PMC11480844

B1: H2-Kb / Ed5 (parent complex)
chain 1: GDSVTQTEGPVTVSESESLIINCTYSATSIAYPNLFWYVRYPGEGLQLLLKVITAGQKGSSRGFEATYNKETTSFHLQKASVQESDSAVYYCALGSYNQGKLIFGQGTKLSIKP
chain 2: DTTVKQNPRYKLARVGKPVNLICSQTMNHDTMYWYQKKPNQAPKLLLFYYDKILNREADTFEKFQSSRPNNSFCSLYIGSAGLEYSAMYLCASSRRLGASQNTLYFGAGTRLSVL
chain 3: not shown
chain 4: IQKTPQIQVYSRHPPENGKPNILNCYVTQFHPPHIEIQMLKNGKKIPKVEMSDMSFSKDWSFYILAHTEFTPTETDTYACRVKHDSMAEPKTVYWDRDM
chain 5: SIINFEKL

# Variants of: B1
# Assay: % of reporter cells activated (NFAT-GFP), raw; further: test concentration or dose not given here
Each entry belongs to exactly one class, chosen by where its ratio to parent falls: low-valued (below 0.6), mid-valued (0.6 to below 0.8), high-valued (0.8 or more)

Which band does chain 5 I2Y fall in? mid-valued

Which band does chain 5 E6I fall in? low-valued

Which band does chain 5 I3L fall in? high-valued

Which band does chain 5 L8Y fall in? high-valued

Which band does chain 5 F5R fall in? mid-valued

Which band does chain 5 E6W fall in? low-valued

Which band does chain 5 E6K fall in? high-valued

Which band does chain 5 S1K fall in? mid-valued

Which band does chain 5 L8E fall in? mid-valued
